protocolDetails: qHTS Assay for Small Molecule Inhibitors of Mitochondrial Division or Activators of Mitochondrial Fusion; note: nearly all actives have a fitted effect of over 45% in size
testParameters: S. cerevisiae fusion-defective mutant growth rescue, CellTiterGlo 48 h; series mostly up to 46.1 µM
The whole screen tested about 320,000 compounds, of which about 740 (0.23%) were called active. Inconclusive results (about 2%) are left out. Calls come from the whole dose curve; as a rule, active = well fitted activation curve with a large enough effect; inconclusive = small, poorly fitted or top-dose-only effect; inactive = no such curve, though single readings can be large or run the other way. The entries come from a sample that favours actives as a whole.
Entry note: the call must match one of yes (1) for active, no (0) for inactive

CCCC(O)(CCC)C(=O)NN(C(=O)CCl)c1cccc(C)c1
no (0)
Cc1ccc(NC(=O)CSc2sc3c(O)cc(=O)[nH]c3c2C#N)cc1C
no (0)

Inquiry: Write down the call the test reported for this compound. Item: CCOc1ccccc1NC(=O)CCn1cnnn1
Reply text: no (0)

Inquiry: What was the test verdict on CCc1ccc(Nc2ncc3c(n2)CC(c2ccco2)CC3=O)cc1 (stereo not given) ?
Reply text: yes (1)

Inquiry: Hello, I am checking results. What call was entered for CCN(C(=O)CN1CCN(Cc2ccccc2)CC1)c1c(N)n(Cc2ccccc2)c(=O)[nH]c1=O ?
Reply text: no (0)

Inquiry: Recorded call for CC1CCN(c2ccc(-c3ccc(NC(=O)c4ccco4)cc3)nn2)CC1 ?
Reply text: no (0)

Inquiry: Give the logged outcome of this assay for the following compound: O=C(NC1CCCC1)C(c1ccco1)N(C(=O)c1ccco1)c1ccc(F)cc1 (stereo not given)
Reply text: no (0)

Inquiry: I would be grateful if you could indicate the recorded call for O=S(=O)(Nc1ccc2nc(N3CCOCC3)sc2c1)c1ccccc1 .
Reply text: no (0)

Inquiry: Could you please tell me the result logged for CCc1ccc[n+](-c2nc([O-])sc2C=O)c1 in this assay?
Reply text: no (0)

Inquiry: Dear all, I need the recorded test outcome for COc1ccccc1N(C)S(=O)(=O)c1ccc(C(=O)NC2CCCCCC2)cc1 , thank you.
Reply text: no (0)

Inquiry: Hi, sorry to bother you, what did the test record for Cc1csc(OCC(=O)Nc2ccc(C)c(C)c2)n1 ?
Reply text: no (0)

Inquiry: Outcome logged for COc1cc(NC(=O)CSc2nc3nc(C)c(Cc4ccc(C)cc4)c(C)n3n2)cc(OC)c1OC in this assay:
Reply text: no (0)

Inquiry: Record request — test call for COc1ccccc1NC(=O)c1cc(S(=O)(=O)NCCc2ccccc2)ccc1F
Reply text: no (0)

Inquiry: I'd appreciate the recorded outcome for CCOC(=O)C1=C(c2ccccc2)NC(=O)NC1c1cc(OC)c(OC)cc1OC (stereo not given) from this test.
Reply text: no (0)

----------
protocolDetails: qHTS Assay for Small Molecule Inhibitors of Mitochondrial Division or Activators of Mitochondrial Fusion; note: nearly all actives have a fitted effect of over 45% in size
testParameters: S. cerevisiae fusion-defective mutant growth rescue, CellTiterGlo 48 h; series mostly up to 46.1 µM
Hit rate of the full screen: of about 320,000 compounds, about 740 (0.23%) were called active. Roughly 2% stayed inconclusive and do not appear here. Calls follow the shape of the dose curve; as a rule, active = well fitted activation curve with a large enough effect; inconclusive = small, poorly fitted or top-dose-only effect; inactive = no such curve, though single readings can be large or run the other way. What follows is part of a selection rich in actives, with near analogues and random picks from the rest.
Lab note: assign the record to one of active, inactive

See these solved cases before continuing.
COc1cc(C2NC(=O)NC(c3ccccc3)=C2C(C)=O)c(Br)cc1OCC(N)=O (stereo unspecified)
inactive
CCCN1C(=O)C(O)(CC(=O)c2ccc(CC)cc2)c2cc(Br)ccc21 (stereo unspecified)
inactive
CCC1=Nc2cc(C(=O)NCCN3CCCC3)ccc2Sc2ccc(C)cc21
inactive
CCCC1=Nc2cc(C(=O)NCCN3CCCC3)ccc2Sc2ccccc21
inactive

Inquiry: Per the records of this test, what outcome belongs to COc1cccc(/C=C2\Sc3ccc(C(=O)NCC4CCCO4)cc3N(C)C2=O)c1 (stereo unspecified) ?
Reply text: active

Inquiry: In this assay, the call recorded for COc1ccccc1-n1cnc2cc(C(=O)NCC3CCCO3)ccc21 (stereo unspecified) was what?
Reply text: inactive

Inquiry: // return assay outcome for CCOc1ccc(/C=N/OCC(=O)NCc2cccs2)cc1
Reply text: inactive

Inquiry: Tell me the recorded outcome of this test for Cc1cc(-c2nnc(CCC(=O)NC(c3ccccc3)c3ccccc3)o2)no1 .
Reply text: inactive

Inquiry: Hi, sorry to bother you, what did the test record for CCOC(=O)c1ccc(-c2ccc(/C=C(\C#N)C(=O)Nc3ccc(C)cc3)o2)cc1 ?
Reply text: inactive

Inquiry: Please share the test call associated with COC(=O)C(C)N=Cc1ccccc1 (stereo unspecified) .
Reply text: inactive

Inquiry: Answer briefly: the call reported for CCOC(=O)/C=C/C(=O)OCC(=O)NC(c1ccccc1)c1ccccc1 in this assay.
Reply text: inactive
